Test: Measured pKa, log P and log D (determined by pION, Inc.)
Format: physicochemical
READOUT TYPE: logD

>>> test_value("O=C(c1ccc(CN2CCOCC2)cc1)N1CCN(C2CCC2)CC1")
1.77
>>> test_value("O=C(c1ccc(CN2CCOCC2)cc1)N1CCN(C2CC2)CC1")
0.86

---

Test: Measured pKa, log P and log D (determined by pION, Inc.)
Type: physicochemical
Settings: second value; read-out: pKa (meas.)
READOUT TYPE: pKa

>>> test_value("O=C(c1ccc(CN2CCOCC2)cc1)N1CCN(C2CCC2)CC1")
6.5
>>> test_value("O=C(c1ccc(CN2CCOCC2)cc1)N1CCN(C2CC2)CC1")
5.3

---

Molecular target: Human H3 Receptor (Homo sapiens, UniProt Q9Y5N1)
Construct: expressed in transfected cells
Sequence (Q9Y5N1 whole entry): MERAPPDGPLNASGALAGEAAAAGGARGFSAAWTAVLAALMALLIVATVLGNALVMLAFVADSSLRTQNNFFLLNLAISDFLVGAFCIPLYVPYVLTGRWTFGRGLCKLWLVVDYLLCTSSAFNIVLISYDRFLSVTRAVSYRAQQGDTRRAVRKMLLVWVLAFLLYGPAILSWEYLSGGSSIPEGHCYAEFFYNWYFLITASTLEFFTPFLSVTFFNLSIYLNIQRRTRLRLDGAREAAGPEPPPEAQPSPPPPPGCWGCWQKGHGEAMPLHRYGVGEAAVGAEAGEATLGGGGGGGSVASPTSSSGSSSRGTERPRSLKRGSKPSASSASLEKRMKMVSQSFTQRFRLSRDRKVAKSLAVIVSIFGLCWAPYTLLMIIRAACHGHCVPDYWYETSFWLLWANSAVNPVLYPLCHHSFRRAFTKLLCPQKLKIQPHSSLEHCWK
Assay: [3H]-N-Methylhistamine binding, membranes of H3 receptor-expressing SK-N-MC cells
Details: Ki (nM), 0.8 nM [3H]-N-methylhistamine, 60 min at 25° C., average of results
READOUT TYPE: Ki (nM)

>>> test_value("O=C(O)CC(O)(CC(=O)O)C(=O)O.O=C(c1ccc(CN2CCOCC2)cc1)N1CCN(C2CC2)CC1 [Example 1B, citrate salt]")
6.5

---

Some molecules, each annotated with its measured log10 of AUC(0-inf).
Experiment: Pharmacokinetics and bioanalysis in the rat
Type: in vivo, male Sprague Dawley Rats
Conditions: male, Sprague Dawley, oral 10 mg/kg, citric acid salt, plasma, read-out: AUCINF (h-μmol/mL)
READOUT TYPE: log10 of AUC(0-inf) (log10 of the value in µM·h)

>>> test_value("CC(C)N1CCN(C(=O)c2ccc(CN3CCC(F)CC3)cc2)CC1.O=C(O)CC(O)(CC(=O)O)C(=O)O [Comparative Example 3B]")
0.29
>>> test_value("CC(C)N1CCN(C(=O)c2ccc(CN3CCOC(CO)C3)cc2)CC1 (stereo not shown) [Comparative Example 6B]")
1.30
>>> test_value("O=C(O)CC(O)(CC(=O)O)C(=O)O.O=C(c1ccc(CN2CCC(F)CC2)cc1)N1CCN(C2CC2)CC1 [Example 2B]")
0.28
>>> test_value("O=C(O)CC(O)(CC(=O)O)C(=O)O.O=C(c1ccc(CN2CCSCC2)cc1)N1CCN(C2CCC2)CC1 [Comparative Example 5B]")
-0.92
>>> test_value("O=C(O)CC(O)(CC(=O)O)C(=O)O.O=C(c1ccc(CN2CCC(F)CC2)cc1)N1CCN(C2CCC2)CC1 [Comparative Example 4B]")
0.11
>>> test_value("O=C(O)CC(O)(CC(=O)O)C(=O)O.O=C(c1ccc(CN2CCSCC2)cc1)N1CCN(C2CC2)CC1 [Example 3B]")
-0.74
>>> test_value("O=C(O)CC(O)(CC(=O)O)C(=O)O.O=C(c1ccc(CN2CCOC(CO)C2)cc1)N1CCN(C2CC2)CC1 (stereo not shown) [Example 4B]")
1.52

---

Assay: Pharmacokinetics and bioanalysis in the rat
Format: in vivo, male Sprague Dawley Rats
Conditions: male, Sprague Dawley, oral 10 mg/kg, citric acid salt, plasma, read-out: AUCINF
Some compounds, each annotated with its measured AUC(0-inf).
READOUT TYPE: AUC(0-inf) (ng·h/mL)

>>> test_value("CC(C)N1CCN(C(=O)c2ccc(CN3CCOCC3)cc2)CC1.O=C(O)CC(O)(CC(=O)O)C(=O)O")
9740
>>> test_value("O=C(O)CC(O)(CC(=O)O)C(=O)O.O=C(c1ccc(CN2CCOCC2)cc1)N1CCN(C2CCC2)CC1")
4100
>>> test_value("O=C(O)CC(O)(CC(=O)O)C(=O)O.O=C(c1ccc(CN2CCOCC2)cc1)N1CCN(C2CC2)CC1")
8720

---

Assay: Pharmacokinetics and bioanalysis in the rat
Format: in vivo, male Sprague Dawley Rats
Conditions: compared with isopropyl / cyclobutyl analogs
Experimental: One group of six male Sprague Dawley Rats (approx. 300 g body weight; three animals per time point) was used. They were group-housed, provided food and water ad libitum, and were maintained on a 12-h light and dark cycle. […] Data analysis was performed using WinNonlin version 3.3 or 4.0.1. A non -compartmental model (#200 for Extravascular administration and #201 for i.v.) was used to determine the pharmacokinetic parameters shown in Tables 4 and 5 (NA=not applicable or not determined).
READOUT TYPE: half-life (T1/2) relative to the comparative examples

>>> test_value("O=C(O)CC(O)(CC(=O)O)C(=O)O.O=C(c1ccc(CN2CCC(F)CC2)cc1)N1CCN(C2CC2)CC1")
"shorter T1/2"
>>> test_value("O=C(O)CC(O)(CC(=O)O)C(=O)O.O=C(c1ccc(CN2CCOC(CO)C2)cc1)N1CCN(C2CC2)CC1 (stereo not shown)")
"shorter T1/2"
>>> test_value("O=C(O)CC(O)(CC(=O)O)C(=O)O.O=C(c1ccc(CN2CCSCC2)cc1)N1CCN(C2CC2)CC1")
"shorter T1/2"

---

Experiment: Pharmacokinetics and bioanalysis in the rat
Type: in vivo, male Sprague Dawley Rats
Conditions: oral 10 mg/kg, citric acid salt
Method: One group of six male Sprague Dawley Rats (approx. 300 g body weight; three animals per time point) was used. They were group-housed, provided food and water ad libitum, and were maintained on a 12-h light and dark cycle. […] Data analysis was performed using WinNonlin version 3.3 or 4.0.1. A non -compartmental model (#200 for Extravascular administration and #201 for i.v.) was used to determine the pharmacokinetic parameters shown in Tables 4 and 5 (NA=not applicable or not determined).
READOUT TYPE: Vd (L/kg)

>>> test_value("CC(C)N1CCN(C(=O)c2ccc(CN3CCC(F)CC3)cc2)CC1.O=C(O)CC(O)(CC(=O)O)C(=O)O [Comparative Example 3B]")
180
>>> test_value("O=C(O)CC(O)(CC(=O)O)C(=O)O.O=C(c1ccc(CN2CCC(F)CC2)cc1)N1CCN(C2CC2)CC1 [Example 2B]")
112
>>> test_value("O=C(O)CC(O)(CC(=O)O)C(=O)O.O=C(c1ccc(CN2CCOCC2)cc1)N1CCN(C2CC2)CC1 [Example 1B]")
5.45

---

Assay: Pharmacokinetics and bioanalysis in the rat
Format: in vivo, male Sprague Dawley Rats
Conditions: oral 10 mg/kg, citric acid salt
READOUT TYPE: CI (mL/min/kg)

>>> test_value("CC(C)N1CCN(C(=O)c2ccc(CN3CCC(F)CC3)cc2)CC1.O=C(O)CC(O)(CC(=O)O)C(=O)O")
270
>>> test_value("CC(C)N1CCN(C(=O)c2ccc(CN3CCOCC3)cc2)CC1.O=C(O)CC(O)(CC(=O)O)C(=O)O")
17.1
>>> test_value("O=C(O)CC(O)(CC(=O)O)C(=O)O.O=C(c1ccc(CN2CCOCC2)cc1)N1CCN(C2CC2)CC1")
20.2
>>> test_value("O=C(O)CC(O)(CC(=O)O)C(=O)O.O=C(c1ccc(CN2CCC(F)CC2)cc1)N1CCN(C2CC2)CC1")
431
>>> test_value("O=C(O)CC(O)(CC(=O)O)C(=O)O.O=C(c1ccc(CN2CCOCC2)cc1)N1CCN(C2CCC2)CC1")
43.2
>>> test_value("O=C(O)CC(O)(CC(=O)O)C(=O)O.O=C(c1ccc(CN2CCC(F)CC2)cc1)N1CCN(C2CCC2)CC1")
1135

---

Some molecules, each annotated with its measured Vd.
Experiment: Pharmacokinetics and bioanalysis in the rat
Format: in vivo, male Sprague Dawley Rats
Conditions: oral 10 mg/kg, citric acid salt
READOUT TYPE: Vd

>>> test_value("O=C(O)CC(O)(CC(=O)O)C(=O)O.O=C(c1ccc(CN2CCC(F)CC2)cc1)N1CCN(C2CCC2)CC1")
"397 L/kg"
>>> test_value("O=C(O)CC(O)(CC(=O)O)C(=O)O.O=C(c1ccc(CN2CCOCC2)cc1)N1CCN(C2CCC2)CC1")
"10.33 L/kg"
>>> test_value("CC(C)N1CCN(C(=O)c2ccc(CN3CCOCC3)cc2)CC1.O=C(O)CC(O)(CC(=O)O)C(=O)O")
"6.98 L/kg"

---

Test: Pharmacokinetics and bioanalysis in the rat
Assay type: in vivo, male Sprague Dawley Rats
Conditions: male, Sprague Dawley, oral 10 mg/kg, citric acid salt, plasma
Some compounds, each annotated with its measured Cmax.
READOUT TYPE: Cmax

>>> test_value("O=C(O)CC(O)(CC(=O)O)C(=O)O.O=C(c1ccc(CN2CCOC(CO)C2)cc1)N1CCN(C2CC2)CC1 (stereo not shown)")
"8730 nM"
>>> test_value("CC(C)N1CCN(C(=O)c2ccc(CN3CCOC(CO)C3)cc2)CC1 (stereo not shown)")
"2960 nM"
>>> test_value("O=C(O)CC(O)(CC(=O)O)C(=O)O.O=C(c1ccc(CN2CCC(F)CC2)cc1)N1CCN(C2CC2)CC1")
"420 nM"
>>> test_value("O=C(O)CC(O)(CC(=O)O)C(=O)O.O=C(c1ccc(CN2CCOCC2)cc1)N1CCN(C2CC2)CC1")
"2790 ng/mL"
>>> test_value("O=C(O)CC(O)(CC(=O)O)C(=O)O.O=C(c1ccc(CN2CCSCC2)cc1)N1CCN(C2CCC2)CC1")
"70 nM"
>>> test_value("O=C(O)CC(O)(CC(=O)O)C(=O)O.O=C(c1ccc(CN2CCSCC2)cc1)N1CCN(C2CC2)CC1")
"190 nM"
>>> test_value("CC(C)N1CCN(C(=O)c2ccc(CN3CCC(F)CC3)cc2)CC1.O=C(O)CC(O)(CC(=O)O)C(=O)O")
"160 nM"
